Overview of recorded Urinary excretion F3 for various molecules
assay: Urinary excretion of flavanone-derived metabolites after single intake of lemon or orange extract (UPLC-ESI-QTOF-MS); assay type: in vivo, human; details: orange extract, urine fraction 8-10 h, mean ± SD

MOLECULE: O=C1CC(c2ccc(OC3OC(C(=O)O)C(O)C(O)C3O)c(O)c2)Oc2cc(O)cc(O)c21 (centres unmarked) [M4, Eriodictyol glucuronide-3]
UNITS LABEL: µg/mg creatinine
Urinary excretion F3: 0.7
--
MOLECULE: O=C1CC(c2ccc(O)c(O)c2)Oc2cc(OC3OC(C(=O)O)C(O)C(O)C3O)cc(O)c21 (centres unmarked) [M1, Eriodictyol glucuronide-1]
UNITS LABEL: µg/mg creatinine
Urinary excretion F3: 0.1
--
MOLECULE: O=C1CC(c2ccc(O)cc2)Oc2cc(OC3OC(C(=O)O)C(O)C(O)C3O)cc(O)c21 (centres unmarked) [M3, Naringenin 7-O-glucuronide]
UNITS LABEL: µg/mg creatinine
Urinary excretion F3: 0.2
--
MOLECULE: COc1ccc(C2CC(=O)c3c(O)cc(O)cc3O2)cc1OC1OC(C(=O)O)C(O)C(O)C1O (centres unmarked) [M8, Hesperetin 3′-O-glucuronide]
UNITS LABEL: µg/mg creatinine
Urinary excretion F3: 3.3
--
MOLECULE: COc1ccc(C2CC(=O)c3c(O)cc(OC4OC(C(=O)O)C(O)C(O)C4O)cc3O2)cc1O (centres unmarked) [M7, Hesperetin 7-O-glucuronide]
UNITS LABEL: µg/mg creatinine
Urinary excretion F3: 2.2
--
MOLECULE: COc1ccc(C2CC(=O)c3c(O)cc(O)cc3O2)cc1OS(=O)(=O)O (centres unmarked) [M14, Hesperetin 3′-O-sulfate]
UNITS LABEL: µg/mg creatinine
Urinary excretion F3: 1.9
--
MOLECULE: O=C1CC(c2ccc(O)c(OC3OC(C(=O)O)C(O)C(O)C3O)c2)Oc2cc(O)cc(O)c21 (centres unmarked) [M2, Eriodictyol glucuronide-2]
UNITS LABEL: µg/mg creatinine
Urinary excretion F3: 0.5
--
MOLECULE: O=C1CC(c2ccc(OC3OC(C(=O)O)C(O)C(O)C3O)cc2)Oc2cc(O)cc(O)c21 (centres unmarked) [M5, Naringenin 4′-O-glucuronide]
UNITS LABEL: µg/mg creatinine
Urinary excretion F3: 0.3

* * *

experiment: Plasma metabolites and pharmacokinetics after single intake of lemon or orange extract (UPLC-ESI-QTOF-MS, non-compartmental analysis); format: in vivo, human; details: after lemon extract, mean ± SD
Listed compounds paired with reported Tmax
READOUT KIND: Tmax (h)

COMPOUND: O=C1CC(c2ccc(O)c(O)c2)Oc2cc(OC3OC(C(=O)O)C(O)C(O)C3O)cc(O)c21 (stereo not drawn) [M1, Eriodictyol glucuronide-1]
READOUT KIND: Tmax
REPORTED MEASUREMENT: 5.9
--
COMPOUND: O=C1CC(c2ccc(OC3OC(C(=O)O)C(O)C(O)C3O)cc2)Oc2cc(O)cc(O)c21 (stereo not drawn) [M5, Naringenin 4′-O-glucuronide]
READOUT KIND: Tmax
REPORTED MEASUREMENT: 5.7
--
COMPOUND: O=C1CC(c2ccc(O)c(OC3OC(C(=O)O)C(O)C(O)C3O)c2)Oc2cc(O)cc(O)c21 (stereo not drawn) [M2, Eriodictyol glucuronide-2]
READOUT KIND: Tmax
REPORTED MEASUREMENT: 5.9

* * *

assay: Plasma metabolites and pharmacokinetics after single intake of lemon or orange extract (UPLC-ESI-QTOF-MS, non-compartmental analysis); assay type: in vivo, human; conditions: after consuming lemon extract, n = 16 volunteers
Occurrence Plasma LE (number of volunteers in whom the metabolite was detected) for assorted compounds
READOUT KIND: Occurrence Plasma LE (number of volunteers in whom the metabolite was detected)

COMPOUND: O=C1CC(c2ccc(O)c(OC3OC(C(=O)O)C(O)C(O)C3O)c2)Oc2cc(O)cc(O)c21 (centres unmarked) [M2, Eriodictyol glucuronide-2]
REPORTED MEASUREMENT: 16

COMPOUND: COc1ccc(C2CC(=O)c3c(O)cc(O)cc3O2)cc1OS(=O)(=O)O (centres unmarked) [M14, Hesperetin 3′-O-sulfate]
REPORTED MEASUREMENT: 16

COMPOUND: O=C1CC(c2ccc(OC3OC(C(=O)O)C(O)C(O)C3O)cc2)Oc2cc(O)cc(O)c21 (centres unmarked) [M5, Naringenin 4′-O-glucuronide]
REPORTED MEASUREMENT: 16

COMPOUND: COc1cc([C@@H]2CC(=O)c3c(O)cc(O)cc3O2)ccc1O
REPORTED MEASUREMENT: 15

COMPOUND: COc1ccc([C@@H]2CC(=O)c3c(O)cc(O)cc3O2)cc1O
REPORTED MEASUREMENT: 8

* * *

test: Urinary excretion of flavanone-derived metabolites after single intake of lemon or orange extract (UPLC-ESI-QTOF-MS); format: in vivo, human; details: orange extract, urine fraction 4-8 h, mean ± SD

COMPOUND: O=C1CC(c2ccc(O)cc2)Oc2cc(OC3OC(C(=O)O)C(O)C(O)C3O)cc(O)c21 (centres unmarked) [M3, Naringenin 7-O-glucuronide]
Urinary excretion F2, µg/mg creatinine: 0.2

COMPOUND: COc1ccc(C2CC(=O)c3c(O)cc(OC4OC(C(=O)O)C(O)C(O)C4O)cc3O2)cc1O (centres unmarked) [M7, Hesperetin 7-O-glucuronide]
Urinary excretion F2, µg/mg creatinine: 2.1

COMPOUND: O=C1CC(c2ccc(O)c(OC3OC(C(=O)O)C(O)C(O)C3O)c2)Oc2cc(O)cc(O)c21 (centres unmarked) [M2, Eriodictyol glucuronide-2]
Urinary excretion F2, µg/mg creatinine: 0.5

COMPOUND: O=C1CC(c2ccc(OC3OC(C(=O)O)C(O)C(O)C3O)c(O)c2)Oc2cc(O)cc(O)c21 (centres unmarked) [M4, Eriodictyol glucuronide-3]
Urinary excretion F2, µg/mg creatinine: 0.5

COMPOUND: COc1ccc(C2CC(=O)c3c(O)cc(O)cc3O2)cc1OS(=O)(=O)O (centres unmarked) [M14, Hesperetin 3′-O-sulfate]
Urinary excretion F2, µg/mg creatinine: 1.2

COMPOUND: O=C1CC(c2ccc(OC3OC(C(=O)O)C(O)C(O)C3O)cc2)Oc2cc(O)cc(O)c21 (centres unmarked) [M5, Naringenin 4′-O-glucuronide]
Urinary excretion F2, µg/mg creatinine: 0.3

COMPOUND: O=C1CC(c2ccc(O)c(O)c2)Oc2cc(OC3OC(C(=O)O)C(O)C(O)C3O)cc(O)c21 (centres unmarked) [M1, Eriodictyol glucuronide-1]
Urinary excretion F2, µg/mg creatinine: 0.4

COMPOUND: COc1ccc(C2CC(=O)c3c(O)cc(O)cc3O2)cc1OC1OC(C(=O)O)C(O)C(O)C1O (centres unmarked) [M8, Hesperetin 3′-O-glucuronide]
Urinary excretion F2, µg/mg creatinine: 4.3

* * *

Catalogue of compounds with associated Urinary excretion F1
experiment: Urinary excretion of flavanone-derived metabolites after single intake of lemon or orange extract (UPLC-ESI-QTOF-MS); format: in vivo, human; conditions: orange extract (1.95 g, 260 mg hesperidin), urine fraction 0-4 h, mean ± SD
READOUT KIND: Urinary excretion F1

COMPOUND: O=C1CC(c2ccc(O)cc2)Oc2cc(OC3OC(C(=O)O)C(O)C(O)C3O)cc(O)c21 (stereo not drawn) [M3, Naringenin 7-O-glucuronide]
REPORTED MEASUREMENT: 0.1 ± 0.1 µg/mg creatinine

COMPOUND: O=C1CC(c2ccc(OC3OC(C(=O)O)C(O)C(O)C3O)cc2)Oc2cc(O)cc(O)c21 (stereo not drawn) [M5, Naringenin 4′-O-glucuronide]
REPORTED MEASUREMENT: 0.1 ± 0.1 µg/mg creatinine

COMPOUND: COc1ccc(C2CC(=O)c3c(O)cc(O)cc3O2)cc1OC1OC(C(=O)O)C(O)C(O)C1O (stereo not drawn) [M8, Hesperetin 3′-O-glucuronide]
REPORTED MEASUREMENT: 0.5 ± 1.5 µg/mg creatinine

* * *

This section presents compounds with their documented Occurrence Urine LE (number of volunteers in whom the metabolite was detected) values.
assay: Urinary excretion of flavanone-derived metabolites after single intake of lemon or orange extract (UPLC-ESI-QTOF-MS); assay type: in vivo, human; settings: urine, after consuming lemon extract, n = 16 volunteers
READOUT KIND: Occurrence Urine LE (number of volunteers in whom the metabolite was detected)

COMPOUND: COc1ccc(C2CC(=O)c3c(O)cc(O)cc3O2)cc1OC1OC(C(=O)O)C(O)C(O)C1O (stereo not drawn) [M8, Hesperetin 3′-O-glucuronide]
REPORTED MEASUREMENT: 16
--
COMPOUND: O=C1CC(c2ccc(OC3OC(C(=O)O)C(O)C(O)C3O)cc2)Oc2cc(O)cc(O)c21 (stereo not drawn) [M5, Naringenin 4′-O-glucuronide]
REPORTED MEASUREMENT: 16
--
COMPOUND: COc1ccc([C@@H]2CC(=O)c3c(O)cc(O)cc3O2)cc1O
REPORTED MEASUREMENT: 5
--
COMPOUND: O=C1CC(c2ccc(O)c(OC3OC(C(=O)O)C(O)C(O)C3O)c2)Oc2cc(O)cc(O)c21 (stereo not drawn) [M2, Eriodictyol glucuronide-2]
REPORTED MEASUREMENT: 16
--
COMPOUND: O=C1CC(c2ccc(O)c(O)c2)Oc2cc(OC3OC(C(=O)O)C(O)C(O)C3O)cc(O)c21 (stereo not drawn) [M1, Eriodictyol glucuronide-1]
REPORTED MEASUREMENT: 16
--
COMPOUND: O=C1C[C@@H](c2ccc(O)c(O)c2)Oc2cc(O)cc(O)c21
REPORTED MEASUREMENT: 14
--
COMPOUND: O=C1CC(c2ccc(OC3OC(C(=O)O)C(O)C(O)C3O)c(O)c2)Oc2cc(O)cc(O)c21 (stereo not drawn) [M4, Eriodictyol glucuronide-3]
REPORTED MEASUREMENT: 16
--
COMPOUND: COc1cc([C@@H]2CC(=O)c3c(O)cc(O)cc3O2)ccc1O
REPORTED MEASUREMENT: 12
--
COMPOUND: O=C1CC(c2ccc(O)cc2)Oc2cc(OC3OC(C(=O)O)C(O)C(O)C3O)cc(O)c21 (stereo not drawn) [M3, Naringenin 7-O-glucuronide]
REPORTED MEASUREMENT: 16
--
COMPOUND: COc1ccc(C2CC(=O)c3c(O)cc(O)cc3O2)cc1OS(=O)(=O)O (stereo not drawn) [M14, Hesperetin 3′-O-sulfate]
REPORTED MEASUREMENT: 16
--
COMPOUND: COc1ccc(C2CC(=O)c3c(O)cc(OC4OC(C(=O)O)C(O)C(O)C4O)cc3O2)cc1O (stereo not drawn) [M7, Hesperetin 7-O-glucuronide]
REPORTED MEASUREMENT: 16
--
COMPOUND: O=C1C[C@@H](c2ccc(O)cc2)Oc2cc(O)cc(O)c21
REPORTED MEASUREMENT: 9

src = paper PMC8000041
